# credit: ChEMBL document CHEMBL4325904

# Species: Homo sapiens
# experiment: Selectivity ratio of IC50 for human recombinant full length C-terminal His-tagged HDAC3 (1 to 428 residues)/N-terminal GST-tagged NCOR2 (395 to 489 residues) to IC50 for recombinant N-terminal GST-tagged human HDAC6 (1 to 1215 residues)
endpointName: Ratio IC50

Use the examples below as a reference point.
substanceSmiles | measuredResult
O=C(CCCCCN1C(=O)c2cccc3c(Nc4ccccc4)ccc(c23)C1=O)NO | 36
O=C(CCCCCN1C(=O)c2cccc3c(N4CCOCC4)ccc(c23)C1=O)NO | 27

[P] CCCNc1ccc2c3c(cccc13)C(=O)N(CCCCCC(=O)NO)C2=O
[Q] O=C(CCCCCN1C(=O)c2cccc3c(Nc4cccc(F)c4)ccc(c23)C1=O)NO
[R] O=C(CCCCCN1C(=O)c2cccc3c([N+](=O)[O-])ccc(c23)C1=O)NO
[S] CN(Cc1ccccc1)c1ccc2c3c(cccc13)C(=O)N(CCCCCC(=O)NO)C2=O
IN: List these items ordered by Ratio IC50, big to small. Write out the labels following the order that was asked for.
OUT: R, S, Q, P
(R: 284, S: 72, Q: 39, P: 23)
